System: UACC-257
Test: NCI tumour cell line growth inhibition, 48 h
The source made the active and inactive calls. Cut-off read from the data, not from the text of the source: active = GI50 up to about 1.1 µM and inactive = higher.
measure name: GI50

Please review the entries below; each comes with its answer.
INSERT INTO measurements (molecule, obs_value) VALUES
  ('Fc1cccc(F)c1C1SCc2nc3ccc(Cl)cc3n21 (stereo unspecified)', '> 100 µM (inactive)'),
  ('c1ccc(CN2CCC3(CC2)SSC2(CCN(Cc4ccccc4)CC2)SS3)cc1', '59.7 µM (inactive)'),
  ('C/C(CC(=O)NCCc1ccccc1)=N\NS(=O)(=O)c1ccc(C)cc1', '> 100 µM (inactive)'),
  ('Cc1ccnc2c1c(=O)c1ccccc1n2C', '37.1 µM (inactive)'),
  ('CC(=O)N(O)c1ccc(-c2nc3ccccc3s2)cc1', '> 100 µM (inactive)');

Please give GI50 for each item listed below.
1. C=C(Nc1nc2ccc(C)cc2s1)C(=O)C(CC)C(=O)C(CC)CC1C(=O)NC(=O)NC1=O (stereo unspecified)
2. Cc1cc(O)no1
3. NS(=O)(=O)c1ccc(NC(=S)NC(=O)Nc2ccc(Cl)c(Cl)c2)cc1

result:
1. > 100 µM (inactive)
2. > 100 µM (inactive)
3. 17.9 µM (inactive)

Please give GI50 for each item listed below.
1. C#CCn1c2c(c3ccccc3c1=O)C(=O)c1ccccc1-2
2. CCOC(=O)C(=O)/C(=C/n1c(=S)[nH]c2ccc([N+](=O)[O-])cc21)C(=O)OCC

result:
32.3 µM (inactive)
> 100 µM (inactive)

query: # GI50 lookup, item COCCOC(C)C(=O)C(O)S(=O)(=O)O (stereo unspecified)
result: > 100 µM (inactive)
